- Assayed Target: S. cerevisiae Rpn14 (recombinant) (S. cerevisiae, UniProt P53196 1-417)
- Sequence (P53196 whole entry): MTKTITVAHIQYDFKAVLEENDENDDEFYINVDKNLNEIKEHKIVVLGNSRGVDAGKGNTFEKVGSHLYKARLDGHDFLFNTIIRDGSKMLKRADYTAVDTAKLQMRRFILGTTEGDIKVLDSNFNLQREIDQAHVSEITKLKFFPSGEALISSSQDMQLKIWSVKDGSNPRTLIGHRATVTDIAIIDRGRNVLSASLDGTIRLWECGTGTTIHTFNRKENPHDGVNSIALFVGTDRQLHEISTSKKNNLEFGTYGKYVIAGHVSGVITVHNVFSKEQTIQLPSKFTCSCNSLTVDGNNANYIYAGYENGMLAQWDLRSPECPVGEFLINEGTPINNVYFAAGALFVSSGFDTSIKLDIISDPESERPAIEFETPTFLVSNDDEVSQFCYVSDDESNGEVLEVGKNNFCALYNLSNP
- Protocol Summary: AUC
Test Readout: Kd (nM)
Report as a plain number; the unit nM is understood.

Which measured Kd value corresponds to S. cerevisiae Rpt6 C-terminal domain (Rpt6-C), P318-K405 (domain or fragment, UniProt Q01939 318-405, looked up) PPSVAARAEILRIHSRKMNLTRGINLRKVAEKMNGCSGADVKGVCTEAGMYALRERRIHVTQEDFELAVGKVMNKNQETAISVAKLFK ?
0.25
